Target: human σ1R (Homo sapiens)
Construct: expressed in transfected cells; host or cells: HEK293 (provided by Olivier Soriani, Université de Nice Sophia-Antipolis)
Assay: hσ1R competitive radioligand binding assay
pKi: −log10 of the molar value.
The threshold is inclusive: pKi of exactly 8 counts as rule met; values below receive rule not met.

[Q] For this molecule, is measured pKi 8 or higher? C#CCN(C)c1nc(NCC2CCN(Cc3ccccc3)CC2)c(C#N)c(-c2ccccc2)c1C#N
[A] rule not met

[Q] For this molecule, is measured pKi 8 or higher? C#CCNc1nc(NC2CCN(Cc3ccccc3)CC2)c(C#N)cc1C#N
[A] rule not met

[Q] For this molecule, is measured pKi 8 or higher? C#CCNc1nc(NC2CCN(Cc3ccccc3)CC2)c(C#N)c(-c2ccccc2)c1C#N
[A] rule not met

[Q] For this molecule, is measured pKi 8 or higher? C#CCN(C)c1nc(NCCC2CCN(Cc3ccccc3)CC2)c(C#N)cc1C#N
[A] rule met

* * *

Biological target: human σ1R (Homo sapiens, UniProt Q99720)
Construct: expressed in transfected cells; host or cells: HEK293 (provided by Olivier Soriani, Université de Nice Sophia-Antipolis)
Sequence (Q99720 whole entry): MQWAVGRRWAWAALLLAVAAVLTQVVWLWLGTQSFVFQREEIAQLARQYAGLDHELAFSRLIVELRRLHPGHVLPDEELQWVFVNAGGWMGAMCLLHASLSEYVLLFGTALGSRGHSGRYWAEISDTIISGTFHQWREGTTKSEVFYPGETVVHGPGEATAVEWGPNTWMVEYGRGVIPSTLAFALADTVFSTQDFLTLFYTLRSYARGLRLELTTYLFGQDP
Experiment: hσ1R competitive radioligand binding assay
Details: Ki rat σ2R/Ki hσ1R
Answer each item with its documented Selectivity Index of Rat σ2R/Human σ1R.
Could you keep your reply to the number by itself?

[Q] Return Selectivity Index of Rat σ2R/Human σ1R for the following compound: C#CCN(C)c1nc(NCC2CCN(Cc3ccccc3)CC2)c(C#N)c(-c2ccccc2)c1C#N
[A] 0.46

[Q] Return Selectivity Index of Rat σ2R/Human σ1R for the following compound: C#CCNc1nc(NC2CCN(Cc3ccccc3)CC2)c(C#N)c(-c2ccccc2)c1C#N
[A] 5.2

[Q] Return Selectivity Index of Rat σ2R/Human σ1R for the following compound: C#CCNc1nc(NCCC2CCN(Cc3ccccc3)CC2)c(C#N)cc1C#N
[A] 5.6

* * *

Target: human σ1R (Homo sapiens)
Construct: expressed in transfected cells; host or cells: HEK293 (provided by Olivier Soriani, Université de Nice Sophia-Antipolis)
Test: hσ1R competitive radioligand binding assay
Conditions: Ki rat σ2R/Ki hσ1R
READOUT_NAME: Selectivity Index of Rat σ2R/Human σ1R
Could you keep your reply to the number by itself?

[Q] Provide the reported Selectivity Index of Rat σ2R/Human σ1R (system: human σ1R (Homo sapiens)) for C#CCNc1nc(NCCCCC2CCN(Cc3ccccc3)CC2)c(C#N)c(-c2ccccc2)c1C#N [Compound 10]
[A] 2.5

[Q] Provide the reported Selectivity Index of Rat σ2R/Human σ1R (system: human σ1R (Homo sapiens)) for C#CCNc1nc(NCCCCC2CCN(Cc3ccccc3)CC2)c(C#N)cc1C#N [Compound 4]
[A] 41

[Q] Provide the reported Selectivity Index of Rat σ2R/Human σ1R (system: human σ1R (Homo sapiens)) for C#CCN(C)c1nc(NCCCC2CCN(Cc3ccccc3)CC2)c(C#N)cc1C#N [Compound 6]
[A] 42

[Q] Provide the reported Selectivity Index of Rat σ2R/Human σ1R (system: human σ1R (Homo sapiens)) for C#CCNc1nc(NCCCC2CCN(Cc3ccccc3)CC2)c(C#N)cc1C#N [Compound 3]
[A] 13

[Q] Provide the reported Selectivity Index of Rat σ2R/Human σ1R (system: human σ1R (Homo sapiens)) for C#CCN(C)c1nc(NCCCC2CCN(Cc3ccccc3)CC2)c(C#N)c(-c2ccccc2)c1C#N [Compound 12]
[A] 36

[Q] Provide the reported Selectivity Index of Rat σ2R/Human σ1R (system: human σ1R (Homo sapiens)) for C#CCNc1nc(NC2CCN(Cc3ccccc3)CC2)c(C#N)cc1C#N [Compound 1]
[A] 5.9

[Q] Provide the reported Selectivity Index of Rat σ2R/Human σ1R (system: human σ1R (Homo sapiens)) for C#CCN(C)c1nc(NCCC2CCN(Cc3ccccc3)CC2)c(C#N)cc1C#N [Compound 5]
[A] 270

[Q] Provide the reported Selectivity Index of Rat σ2R/Human σ1R (system: human σ1R (Homo sapiens)) for C#CCNc1nc(NCCCC2CCN(Cc3ccccc3)CC2)c(C#N)c(-c2ccccc2)c1C#N [Compound 9]
[A] 14

* * *

Target: human σ1R (Homo sapiens)
Construct: expressed in transfected cells; host or cells: HEK293 (provided by Olivier Soriani, Université de Nice Sophia-Antipolis)
Test: hσ1R competitive radioligand binding assay
Answer each item with its documented Ki.
Numeric answer only, unit nM assumed.

[Q] Return Ki for the following compound: C#CCN(C)c1nc(NCCCC2CCN(Cc3ccccc3)CC2)c(C#N)c(-c2ccccc2)c1C#N [Compound 12]
[A] 10.9

[Q] Return Ki for the following compound: C#CCNc1nc(NCCC2CCN(Cc3ccccc3)CC2)c(C#N)cc1C#N [Compound 2]
[A] 7.57

[Q] Return Ki for the following compound: C#CCNc1nc(NCCCC2CCN(Cc3ccccc3)CC2)c(C#N)c(-c2ccccc2)c1C#N [Compound 9]
[A] 7.45
